target: hCA II (Homo sapiens, UniProt P00918)
outcome.measure: log10 Ki (log10 of the value in nM)
Values reflect log10 of reported Ki (nM).

Prompt: Return reported log10 Ki; argument: Cc1ccc2nccc(Nc3ccccc3S(N)(=O)=O)c2c1
Response: 1.89

Prompt: Same read-out for Cc1ccc2nccc(Nc3ccc(C)c(S(N)(=O)=O)c3)c2c1 [11e] ?
Response: 3.18

Prompt: Same read-out for COc1ccc2nccc(Nc3ccccc3S(N)(=O)=O)c2c1 ?
Response: 1.70

Prompt: Same read-out for COc1ccc2nccc(NNC(=O)c3ccc(S(N)(=O)=O)cc3)c2c1 ?
Response: 1.49

Prompt: Same read-out for COc1ccc2nccc(Nc3cccc(S(N)(=O)=O)c3)c2c1 [11b] ?
Response: 2.56

Sourced from paper PMC8541628
